# Assay system: hJNK2 (Homo sapiens)
# Sequence (P45984 whole entry, looked up): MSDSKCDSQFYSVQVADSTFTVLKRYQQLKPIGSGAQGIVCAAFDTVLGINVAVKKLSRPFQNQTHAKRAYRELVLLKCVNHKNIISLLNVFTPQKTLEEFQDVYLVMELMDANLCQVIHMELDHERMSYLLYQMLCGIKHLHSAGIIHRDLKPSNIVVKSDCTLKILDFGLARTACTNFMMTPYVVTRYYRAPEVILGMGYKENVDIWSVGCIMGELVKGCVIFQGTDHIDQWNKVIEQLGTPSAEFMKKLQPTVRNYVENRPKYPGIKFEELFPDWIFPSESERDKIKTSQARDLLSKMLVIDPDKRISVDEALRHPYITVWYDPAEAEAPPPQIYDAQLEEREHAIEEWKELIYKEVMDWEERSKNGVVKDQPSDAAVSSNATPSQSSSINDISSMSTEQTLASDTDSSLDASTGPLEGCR
# Assay info: hJNK2 | IC50
Readout type: pIC50
Note: pIC50 values are expressed as the negative base-10 logarithm of concentration in M.

Which measured pIC50 value corresponds to H-RPKRPTTLNLF-NH2 [SEQ ID NO: 193] ?
6.74

* * *

Endpoint: IC50. System: hJNK3 (Homo sapiens). Items follow.
Sequence (P53779 whole entry, looked up): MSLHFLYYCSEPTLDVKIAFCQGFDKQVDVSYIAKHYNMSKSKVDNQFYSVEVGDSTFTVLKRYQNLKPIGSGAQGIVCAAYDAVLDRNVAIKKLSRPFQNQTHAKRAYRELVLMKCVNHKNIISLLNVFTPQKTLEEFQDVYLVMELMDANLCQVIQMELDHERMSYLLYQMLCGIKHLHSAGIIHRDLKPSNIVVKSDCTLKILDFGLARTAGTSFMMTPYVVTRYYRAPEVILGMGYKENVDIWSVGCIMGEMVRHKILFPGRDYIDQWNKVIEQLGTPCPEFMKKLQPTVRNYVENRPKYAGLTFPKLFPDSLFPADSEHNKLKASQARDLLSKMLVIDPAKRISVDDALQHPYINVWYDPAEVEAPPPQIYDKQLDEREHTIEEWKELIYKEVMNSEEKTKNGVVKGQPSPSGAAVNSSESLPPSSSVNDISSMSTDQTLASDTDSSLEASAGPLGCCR
Square brackets hold non-standard residues; d marks the D form. Peptide text beside a SMILES is read from it.
Give just the numeric value; nM need not be written.

Examples from the recorded data:
{"Compound": "CC(C)C[C@H](NC(=O)[C@@H](NC(=O)[C@@H](NC(=O)[C@@H]1CCCN1C(=O)[C@H](CCCNC(=N)N)NC(=O)[C@H](CCCCN)NC(=O)[C@@H]1CCCN1C(=O)[C@@H](N)CCCNC(=N)N)[C@@H](C)O)[C@@H](C)O)C(=O)N[C@H](CC(N)=O)C(=O)N[C@@H](CC(C)C)C(=O)N[C@@H](Cc1ccccc1)C(N)=O [SEQ ID NO: 5] (H-RPKRPTTL[dN]LF-NH2)", "Assay system": "hJNK3 (Homo sapiens)", "Endpoint result": 387}
{"Compound": "CC(C)C[C@H](NC(=O)[C@H](CC(N)=O)NC(=O)[C@H](CC(C)C)NC(=O)[C@@H](NC(=O)[C@@H](NC(=O)[C@@H]1CCCN1C(=O)[C@H](CCCNC(=N)N)NC(=O)[C@H](CCCCN)NC(=O)[C@@H]1CCCN1C(=O)[C@@H](N)CCCNC(=N)N)[C@@H](C)O)[C@@H](C)O)C(=O)N[C@H](Cc1ccccc1)C(N)=O [SEQ ID NO: 7] (H-RPKRPTTLNL[dF]-NH2)", "Assay system": "hJNK3 (Homo sapiens)", "Endpoint result": 89}
{"Compound": "CC(C)C[C@H](NC(=O)[C@H](CC(N)=O)NC(=O)[C@H](CC(C)C)NC(=O)[C@@H](NC(=O)[C@@H](NC(=O)[C@@H]1CCCN1C(=O)[C@H](CCCNC(=N)N)NC(=O)[C@H](CCCCN)NC(=O)[C@@H]1CCCN1C(=O)[C@H](N)CCCNC(=N)N)[C@@H](C)O)[C@@H](C)O)C(=O)N[C@@H](Cc1ccccc1)C(N)=O [SEQ ID NO: 2] (H-[dR]PKRPTTLNLF-NH2)", "Assay system": "hJNK3 (Homo sapiens)", "Endpoint result": 103}
{"Compound": "CC(C)C[C@H](NC(=O)[C@H](CC(N)=O)NC(=O)[C@H](CC(C)C)NC(=O)[C@@H](NC(=O)[C@@H](NC(=O)[C@@H]1CCCN1C(=O)[C@H](CCCNC(=N)N)NC(=O)[C@@H](CCCCN)NC(=O)[C@@H]1CCCN1C(=O)[C@@H](N)CCCNC(=N)N)[C@@H](C)O)[C@@H](C)O)C(=O)N[C@@H](Cc1ccccc1)C(N)=O [SEQ ID NO: 3] (H-RP[dK]RPTTLNLF-NH2)", "Assay system": "hJNK3 (Homo sapiens)", "Endpoint result": 359}

Let us examine a further case.
What value of IC50 has been recorded for this entry: CC(C)C[C@H](NC(=O)[C@@H](NC(=O)[C@@H](NC(=O)[C@@H]1CCCN1C(=O)[C@H](CCCNC(=N)N)NC(=O)[C@H](CCCCN)NC(=O)[C@@H]1CCCN1C(=O)[C@@H](N)CCCNC(=N)N)[C@@H](C)O)[C@@H](C)O)C(=O)N[C@H](CCCNC(=N)N)C(=O)N[C@@H](CC(C)C)C(=O)N[C@@H](Cc1ccccc1)C(N)=O [SEQ ID NO: 6] (H-RPKRPTTL[dR]LF-NH2)
120
